Protocol Text: octanol/buffer partition coefficient
Assay type: physicochemical
Test Context: octanol/buffer, pH 9
# cutoff 0.5 applies to logD; >= gives fulfilled, < gives not fulfilled

INSERT INTO results (molecule, label) VALUES
  ('c1cc(CN2CCCNCCOCCNCCC2)ccc1CN1CCCNCCOCCNCCC1 [Compound J, trihydrate]', 'not fulfilled'),
  ('Clc1cc2nc(c1)CNCCCN(Cc1ccc(CN3CCCNCc4cc(Cl)cc(n4)CNCCC3)cc1)CCCNC2', 'fulfilled'),
  ('c1cc2nc(c1)CNCCCN(Cc1ccc(CN3CCCNCc4cccc(n4)CNCCC3)cc1)CCCNC2', 'fulfilled'),
  ('c1cc2nc(c1)CCNCCN(Cc1ccc(CN3CCNCCc4cccc(n4)CCNCC3)cc1)CCNCC2', 'not fulfilled'),
  ('c1cc2nc(c1)CNCCN(Cc1ccc(CN3CCNCc4cccc(n4)CNCCNCc4cccc(n4)C3)cc1)Cc1cccc(n1)CNCCNC2', 'not fulfilled'),
  ('O=c1cc2[nH]c(c1)CNCCCN(Cc1ccc(CN3CCCNCc4cc(=O)cc([nH]4)CNCCC3)cc1)CCCNC2', 'not fulfilled'),
  ('COc1cc2nc(c1)CNCCCN(Cc1ccc(CN3CCCNCc4cc(OC)cc(n4)CNCCC3)cc1)CCCNC2 [Compound C, dihydrate]', 'not fulfilled');

====

Protocol Text: octanol/buffer partition coefficient
Type: physicochemical
Test Context: octanol/buffer, pH 8
Label class 1 when logD is strictly below -1; at or above that, label class 0.

INSERT INTO assay_data (compound, label) VALUES
  ('c1cc(CN2CCCNCCOCCNCCC2)ccc1CN1CCCNCCOCCNCCC1 [Compound J, trihydrate]', 'class 1'),
  ('COc1cc2nc(c1)CNCCCN(Cc1ccc(CN3CCCNCc4cc(OC)cc(n4)CNCCC3)cc1)CCCNC2 [Compound C, dihydrate]', 'class 0'),
  ('c1cc2nc(c1)CCNCCN(Cc1ccc(CN3CCNCCc4cccc(n4)CCNCC3)cc1)CCNCC2 [Compound E]', 'class 1'),
  ('Clc1cc2nc(c1)CNCCCN(Cc1ccc(CN3CCCNCc4cc(Cl)cc(n4)CNCCC3)cc1)CCCNC2 [Compound B]', 'class 0'),
  ('c1cc2nc(c1)CNCCN(Cc1ccc(CN3CCNCc4cccc(n4)CNCCNCc4cccc(n4)C3)cc1)Cc1cccc(n1)CNCCNC2 [Compound K]', 'class 1'),
  ('c1cc2nc(c1)CNCCCN(Cc1ccc(CN3CCCNCc4cccc(n4)CNCCC3)cc1)CCCNC2 [Compound A]', 'class 0'),
  ('O=c1cc2[nH]c(c1)CNCCCN(Cc1ccc(CN3CCCNCc4cc(=O)cc([nH]4)CNCCC3)cc1)CCCNC2 [Compound D]', 'class 1');

====

Protocol Text: cytotoxicity in MT-4 cells, MTT method
Test Context: human, CC50, HIV-1 (IIIB) part of Table 1, 5 days at 37° C.
Measurement Name: CC50 at 120 h (µg/mL)

INSERT INTO measurements (compound, unit_of_measurement, value_qualifier, measured_result) VALUES
  ('c1cc2nc(c1)CNCCCN(Cc1ccc(CN3CCCNCc4cccc(n4)CNCCC3)cc1)CCCNC2 [Compound A]', 'µg/mL', '>', 250),
  ('c1cc(CN2CCCNCCNCCCNCC2)ccc1CN1CCCNCCNCCCNCC1 [Compound L, dihydrate, reference compound]', 'µg/mL', '>', 250),
  ('c1cc2nc(c1)CNCCN(Cc1ccc(CN3CCNCc4cccc(n4)CNCCNCc4cccc(n4)C3)cc1)Cc1cccc(n1)CNCCNC2 [Compound K]', 'µg/mL', '=', 4.59),
  ('c1cc2nc(c1)CCNCCCN(Cc1ccc(CN3CCCNCCc4cccc(n4)CCNCCC3)cc1)CCCNCC2 [Compound F]', 'µg/mL', '=', 199),
  ('c1cc(CN2CCNCc3cccc(n3)CNCC2)cc(CN2CCNCc3cccc(n3)CNCC2)c1 [Compound H, trihydrate]', 'µg/mL', '=', 32.1),
  ('COc1cc2nc(c1)CNCCCN(Cc1ccc(CN3CCCNCc4cc(OC)cc(n4)CNCCC3)cc1)CCCNC2 [Compound C, dihydrate]', 'µg/mL', '=', 229),
  ('Clc1cc2nc(c1)CNCCCN(Cc1ccc(CN3CCCNCc4cc(Cl)cc(n4)CNCCC3)cc1)CCCNC2 [Compound B]', 'µg/mL', '=', 12.5),
  ('c1cc2nc(c1)CNCCN(Cc1ccc(CN3CCNCc4cccc(n4)CNCC3)cc1)CCNC2 [Compound G, trihydrate]', 'µg/mL', '=', 6),
  ('O=c1cc2[nH]c(c1)CNCCCN(Cc1ccc(CN3CCCNCc4cc(=O)cc([nH]4)CNCCC3)cc1)CCCNC2 [Compound D]', 'µg/mL', '>', 218),
  ('c1cc2nc(c1)CCNCCN(Cc1ccc(CN3CCNCCc4cccc(n4)CCNCC3)cc1)CCNCC2 [Compound E]', 'µg/mL', '>', 250),
  ('c1cc(CN2CCCNCCOCCNCCC2)ccc1CN1CCCNCCOCCNCCC1 [Compound J, trihydrate]', 'µg/mL', '>', 250);

====

As shown below, each of these molecules has a reported IC50 value.
Test system: HIV-2 (LAV-2 ROD)
Protocol Text: MT-4 cells challenged with HIV-2, viability by MTT method (antiviral activity)
Assay type: cell-based, Human Immunodeficiency Virus
Test Context: Human immunodeficiency virus 2, MT4, 120 h; HIV-2 (ROD); MT-4 cells; 5 days at 37° C.; read-out: IC50
Measurement Name: IC50 (µg/mL)

INSERT INTO measurements (molecule, measured_result) VALUES
  ('c1cc(CN2CCCNCCNCCCNCC2)ccc1CN1CCCNCCNCCCNCC1 [Compound L, dihydrate, reference compound]', 0.009),
  ('c1cc(CN2CCNCc3cccc(n3)CNCC2)cc(CN2CCNCc3cccc(n3)CNCC2)c1 [Compound H, trihydrate]', 0.0027),
  ('c1cc2nc(c1)CNCCN(Cc1ccc(CN3CCNCc4cccc(n4)CNCC3)cc1)CCNC2 [Compound G, trihydrate]', 0.15),
  ('c1cc2nc(c1)CCNCCCN(Cc1ccc(CN3CCCNCCc4cccc(n4)CCNCCC3)cc1)CCCNCC2', 1.68);

====

Protocol Text: octanol/buffer partition coefficient
Assay type: physicochemical
Test Context: octanol/buffer, pH 7
Source text: The compounds were additionally studied to determine their partition coefficients as between octanol and water, in standard tests at various pH values. A partition coefficient greater than unity at pH 7-9 is generally considered to be a good indication that the compound will be absorbed through the upper gastrointestinal tract when dosed orally.
# logD values compiled below
Measurement Name: logD

INSERT INTO measurements (compound, measured_result) VALUES
  ('c1cc(CN2CCCNCCOCCNCCC2)ccc1CN1CCCNCCOCCNCCC1 [Compound J, trihydrate]', -2.52),
  ('c1cc2nc(c1)CCNCCN(Cc1ccc(CN3CCNCCc4cccc(n4)CCNCC3)cc1)CCNCC2', -2.4),
  ('Clc1cc2nc(c1)CNCCCN(Cc1ccc(CN3CCCNCc4cc(Cl)cc(n4)CNCCC3)cc1)CCCNC2', -1);

====

Protocol Text: cytotoxicity in MT-4 cells, MTT method
Test Context: human, CC50, HIV-2 (ROD) part of Table 1, 5 days at 37° C.
Measurement Name: CC50 at 120 h (µg/mL)

INSERT INTO results (compound, value_qualifier, measured_result) VALUES
  ('c1cc(CN2CCCNCCNCCCNCC2)ccc1CN1CCCNCCNCCCNCC1 [Compound L, dihydrate, reference compound]', '>', 250),
  ('c1cc(CN2CCNCc3cccc(n3)CNCC2)cc(CN2CCNCc3cccc(n3)CNCC2)c1 [Compound H, trihydrate]', '=', 30.7),
  ('c1cc2nc(c1)CNCCN(Cc1ccc(CN3CCNCc4cccc(n4)CNCCNCc4cccc(n4)C3)cc1)Cc1cccc(n1)CNCCNC2 [Compound K]', '=', 5.89),
  ('c1cc2nc(c1)CNCCN(Cc1ccc(CN3CCNCc4cccc(n4)CNCC3)cc1)CCNC2 [Compound G, trihydrate]', '=', 4.71),
  ('c1cc2nc(c1)CCNCCCN(Cc1ccc(CN3CCCNCCc4cccc(n4)CCNCCC3)cc1)CCCNCC2 [Compound F]', '=', 171),
  ('COc1cc2nc(c1)CNCCCN(Cc1ccc(CN3CCCNCc4cc(OC)cc(n4)CNCCC3)cc1)CCCNC2 [Compound C, dihydrate]', '>', 250),
  ('c1cc(CN2CCCNCCOCCNCCC2)ccc1CN1CCCNCCOCCNCCC1 [Compound J, trihydrate]', '>', 250),
  ('O=c1cc2[nH]c(c1)CNCCCN(Cc1ccc(CN3CCCNCc4cc(=O)cc([nH]4)CNCCC3)cc1)CCCNC2 [Compound D]', '>', 250),
  ('c1cc2nc(c1)CCNCCN(Cc1ccc(CN3CCNCCc4cccc(n4)CCNCC3)cc1)CCNCC2 [Compound E]', '>', 250),
  ('c1cc2nc(c1)CNCCCN(Cc1ccc(CN3CCCNCc4cccc(n4)CNCCC3)cc1)CCCNC2 [Compound A]', '>', 250);
